B1: mRNA-splicing (parent)
chain: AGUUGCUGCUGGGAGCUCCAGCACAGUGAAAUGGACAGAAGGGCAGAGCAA

# Variants of: B1
# assay: exon inclusion enrichment index; higher = more inclusion; WT1 exon 5 minigene, HEK293
readout_name: exon inclusion enrichment index
Just the number, please, no unit attached.

G5U G8C C9G; 1.51
G5A C6G U7G C9A A35U C36A; 0.001
U4G G5U C6G U7C U10C; 0.917
G13A A14C; 0.227
G5U G8U C9U G34U; 0.0349
C6A U7A C9A U10A A47C G48U; 0.811
C6A U7C C9A U10C G43U C44G; 0.567
A45C G46A; 0.0421

Endpoint output: exon inclusion enrichment index of G5U G8U C9U C18G C19U . Value?
0.00531

Can you look up the measured exon inclusion enrichment index of G5C C6G U7C U10C A45U G46U for me?
1.75

So what's the measured exon inclusion enrichment index for this one? G5A U7C G8A U10C A40U G41U
1.26

Suppose we examine the variant C6A U7C C9A U10C A47G G48C ; what exon inclusion enrichment index value has been reported?
1.71

Given the variant C6A U7A C9A U10A A29C A30G , what is its reported exon inclusion enrichment index?
1.51

Recorded exon inclusion enrichment index of G2C G5U G8U C9U , please.
0.122

I am curious: what exon inclusion enrichment index value has been reported for G5C C6U C9A U10C ?
1.69

Which exon inclusion enrichment index value belongs to C6A U7C C9A U10C A29U ?
1.74

Which exon inclusion enrichment index is reported for this variant? U4A G5U C6A U7C C9A U10C
2.45

So what's the measured exon inclusion enrichment index for this one? G5C C6U G8C C9U U10C G15A C16A
1.24

What measured exon inclusion enrichment index goes with G2C U3G G5A U7C G8A U10C ?
2.64

Recorded exon inclusion enrichment index of G5A C6G U7G C9A U17A C18A , please.
0.00127

Consider the variant shown here: G5C C6A U7A C9A U10A What is its recorded exon inclusion enrichment index?
0.906

Requested field: exon inclusion enrichment index. Item: G5A C6A G8C C9U U10C
0.618

Could you share which exon inclusion enrichment index value was measured for G5C C6A U7C G8A U10A A47U G48A ?
0.071

Look up exon inclusion enrichment index for this variant: C6G U7A C9A U10A
0.321

Which exon inclusion enrichment index value is on record for G5C C6G U7C U10C U27C ?
4.97

Would you mind telling me what exon inclusion enrichment index value was observed for C6A U7A C9A U10A C22G A23G ?
0.212

What does the record list as exon inclusion enrichment index for C6A U7A C9A U10A G34A A35C ?
0.52

Find the recorded exon inclusion enrichment index belonging to G5A U7C G8A U10C A23G C24A and report it.
3.5

// returns reported exon inclusion enrichment index for input G5A C6U U7A G8U C9A A35G C36A
0.0117

Using the record for G5C C6U G8C U10G , report its exon inclusion enrichment index.
1.68
